These entries and their values trace back to patent US10662205B2.

Item-by-item account of pKi
- Tested on: OXA-48 (Klebsiella pneumoniae, UniProt Q6XEC0)
- Sequence (Q6XEC0 23-265, looked up, species assumed): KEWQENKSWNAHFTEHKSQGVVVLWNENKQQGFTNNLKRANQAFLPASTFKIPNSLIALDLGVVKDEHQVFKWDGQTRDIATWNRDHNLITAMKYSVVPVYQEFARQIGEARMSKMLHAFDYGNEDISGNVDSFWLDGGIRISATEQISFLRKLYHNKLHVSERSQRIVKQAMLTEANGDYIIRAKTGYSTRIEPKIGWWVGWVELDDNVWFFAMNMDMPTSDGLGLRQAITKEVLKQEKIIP
- Run description: Inhibition of nitrocefin cleavage by purified enzyme (Ki)
- Condition label: nitrocefin reporter substrate; 10 min preincubation; read-out: Ki OXA-48, NCF
pKi: −log10 of the molar value.

{"columns": ["Molecule", "Tested on", "pKi"],
 "data": [
  ["O=C(O)[C@H]1/C(=C/CO)O[C@@H]2CC(=O)N21 [Clavulanic Acid, reference compound]", "OXA-48 (Klebsiella pneumoniae, UniProt Q6XEC0)", "< 6.00"],
  ["CSCC(=O)N[C@H]1CC=C[C@@H]2CC(=O)OB1O2", "OXA-48 (Klebsiella pneumoniae, UniProt Q6XEC0)", "> 7.00"],
  ["O=C(CSC(F)F)N[C@H]1CC=C[C@@H]2CC(=O)OB1O2", "OXA-48 (Klebsiella pneumoniae, UniProt Q6XEC0)", "> 7.00"],
  ["Nc1nnc(SCC(=O)N[C@H]2CC=C[C@@H]3CC(=O)OB2O3)s1", "OXA-48 (Klebsiella pneumoniae, UniProt Q6XEC0)", "6.00 to 7.00"],
  ["C[C@]1(Cn2ccnn2)[C@H](C(=O)O)N2C(=O)C[C@H]2S1(=O)=O [Tazobactam, reference compound]", "OXA-48 (Klebsiella pneumoniae, UniProt Q6XEC0)", "6.00 to 7.00"],
  ["Cc1nnc(SCC(=O)N[C@H]2CC=C[C@@H]3CC(=O)OB2O3)s1", "OXA-48 (Klebsiella pneumoniae, UniProt Q6XEC0)", "> 7.00"],
  ["Cn1nnnc1SCC(=O)N[C@H]1CC=C[C@@H]2CC(=O)OB1O2", "OXA-48 (Klebsiella pneumoniae, UniProt Q6XEC0)", "> 7.00"],
  ["O=C(CSc1nncs1)N[C@H]1CC=C[C@@H]2CC(=O)OB1O2", "OXA-48 (Klebsiella pneumoniae, UniProt Q6XEC0)", "> 7.00"],
  ["Cn1cnnc1SCC(=O)N[C@H]1CC=C[C@@H]2CC(=O)OB1O2", "OXA-48 (Klebsiella pneumoniae, UniProt Q6XEC0)", "6.00 to 7.00"],
  ["N#CCSCC(=O)N[C@H]1CC=C[C@@H]2CC(=O)OB1O2", "OXA-48 (Klebsiella pneumoniae, UniProt Q6XEC0)", "6.00 to 7.00"]
]}

* * *

- Tested on: CMY-2 (Klebsiella pneumoniae)
- Sequence (Q48434 21-381, species assumed): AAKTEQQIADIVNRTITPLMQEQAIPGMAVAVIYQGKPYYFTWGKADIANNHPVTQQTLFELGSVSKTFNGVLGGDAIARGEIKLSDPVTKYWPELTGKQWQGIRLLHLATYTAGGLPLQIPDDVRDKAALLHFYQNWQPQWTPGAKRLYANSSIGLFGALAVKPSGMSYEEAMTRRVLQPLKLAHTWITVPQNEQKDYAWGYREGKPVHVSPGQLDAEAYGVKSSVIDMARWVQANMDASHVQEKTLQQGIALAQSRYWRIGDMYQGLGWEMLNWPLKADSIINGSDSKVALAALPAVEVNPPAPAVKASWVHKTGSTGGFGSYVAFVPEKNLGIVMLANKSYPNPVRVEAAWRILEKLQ
- Run description: Inhibition of nitrocefin cleavage by purified enzyme (Ki)
- Type: biochemical

{"columns": ["Compound", "Ki"],
 "data": [
  ["C[C@]1(Cn2ccnn2)[C@H](C(=O)O)N2C(=O)C[C@H]2S1(=O)=O [Tazobactam, reference compound]", "0.1 to 1 µM"]
]}

* * *

- System: PAM1032/KPC-2
- Run description: Biapenem potentiation MPC64, efflux proficient strain
- Type: cell-based, Pseudomonas aeruginosa
- Parameters: unit not given here
- Condition label: efflux proficient (MexAB-OprM overexpressed); decrease biapenem MIC 64-fold, 32 to 0.5 μg/ml
Measurement label: PAM1032/KPC-2 Biapenem MPC64

{"columns": ["Molecule", "Measurement label", "Value comparator", "Reported result"],
 "data": [
  ["CSCC(=O)N[C@H]1CC=C[C@@H]2CC(=O)OB1O2 [Compound 1]", "PAM1032/KPC-2 Biapenem MPC64", "=", 80],
  ["O=C(CSc1nncs1)N[C@H]1CC=C[C@@H]2CC(=O)OB1O2 [Compound 7]", "PAM1032/KPC-2 Biapenem MPC64", "=", 40],
  ["Cn1nnnc1SCC(=O)N[C@H]1CC=C[C@@H]2CC(=O)OB1O2 [Compound 4]", "PAM1032/KPC-2 Biapenem MPC64", ">", 80],
  ["Nc1nnc(SCC(=O)N[C@H]2CC=C[C@@H]3CC(=O)OB2O3)s1 [Compound 6]", "PAM1032/KPC-2 Biapenem MPC64", "=", 40],
  ["O=C(CSC(F)F)N[C@H]1CC=C[C@@H]2CC(=O)OB1O2 [Compound 3]", "PAM1032/KPC-2 Biapenem MPC64", ">", 80],
  ["Cn1cnnc1SCC(=O)N[C@H]1CC=C[C@@H]2CC(=O)OB1O2 [Compound 5]", "PAM1032/KPC-2 Biapenem MPC64", "=", 80],
  ["N#CCSCC(=O)N[C@H]1CC=C[C@@H]2CC(=O)OB1O2 [Compound 2]", "PAM1032/KPC-2 Biapenem MPC64", "=", 80]
]}

* * *

- Run description: Oral pharmacokinetics
- Type: in vivo
- Condition label: rat, plasma; rats, single oral dose 100 mg/kg, n=3; read-out: Range of % Oral Bioavailability
Measurement label: bioavailability

{"columns": ["Chemical smiles", "Measurement label", "Reported result"],
 "data": [
  ["CSCC(=O)N[C@H]1CC=C[C@@H]2CC(=O)OB1O2", "bioavailability", "63 to 74%"]
]}

* * *

- Test system: KP1004 (KPC-2)
- Run description: Aztreonam potentiation (MPC@4)
- Format: cell-based
- Condition label: aztreonam 4 μg/mL
Measurement label: MPC@4 aztreonam potentiation

{"columns": ["Compound", "Measurement label", "Reported result"],
 "data": [
  ["Nc1nnc(SCC(=O)N[C@H]2CC=C[C@@H]3CC(=O)OB2O3)s1", "MPC@4 aztreonam potentiation", "X (X = MPC@4 ≤ 5 μg/mL)"],
  ["N#CCSCC(=O)N[C@H]1CC=C[C@@H]2CC(=O)OB1O2", "MPC@4 aztreonam potentiation", "X (X = MPC@4 ≤ 5 μg/mL)"],
  ["Cn1nnnc1SCC(=O)N[C@H]1CC=C[C@@H]2CC(=O)OB1O2", "MPC@4 aztreonam potentiation", "X (X = MPC@4 ≤ 5 μg/mL)"],
  ["CSCC(=O)N[C@H]1CC=C[C@@H]2CC(=O)OB1O2", "MPC@4 aztreonam potentiation", "X (X = MPC@4 ≤ 5 μg/mL)"],
  ["O=C(O)[C@H]1/C(=C/CO)O[C@@H]2CC(=O)N21 [Clavulanic Acid, reference compound]", "MPC@4 aztreonam potentiation", "Z (Z = MPC@4 > 20 μg/mL)"],
  ["O=C(CSC(F)F)N[C@H]1CC=C[C@@H]2CC(=O)OB1O2", "MPC@4 aztreonam potentiation", "X (X = MPC@4 ≤ 5 μg/mL)"],
  ["O=C(CSc1nncs1)N[C@H]1CC=C[C@@H]2CC(=O)OB1O2", "MPC@4 aztreonam potentiation", "X (X = MPC@4 ≤ 5 μg/mL)"],
  ["C[C@]1(Cn2ccnn2)[C@H](C(=O)O)N2C(=O)C[C@H]2S1(=O)=O [Tazobactam, reference compound]", "MPC@4 aztreonam potentiation", "Z (Z = MPC@4 > 20 μg/mL)"]
]}

* * *

Entries and their pKi
- Tested on: UniProt P05364
- Sequence (P05364 21-381): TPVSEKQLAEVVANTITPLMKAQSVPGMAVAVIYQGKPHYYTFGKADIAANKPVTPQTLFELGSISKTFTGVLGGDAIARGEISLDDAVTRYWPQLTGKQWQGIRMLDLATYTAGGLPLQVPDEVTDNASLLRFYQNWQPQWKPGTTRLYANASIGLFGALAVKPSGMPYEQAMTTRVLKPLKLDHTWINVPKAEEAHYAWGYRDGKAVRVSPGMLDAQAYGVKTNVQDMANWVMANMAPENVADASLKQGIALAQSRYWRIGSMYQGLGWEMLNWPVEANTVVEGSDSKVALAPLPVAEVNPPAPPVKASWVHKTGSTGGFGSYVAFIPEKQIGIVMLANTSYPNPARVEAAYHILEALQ
- Run description: biochemical
- Condition label: nitrocefin reporter substrate; 10 min preincubation; read-out: Ki P99, NCF
pKi: −log10 of the molar value.
Measurement label: pKi

{"columns": ["Molecule", "Reported result"],
 "data": [
  ["O=C(CSC(F)F)N[C@H]1CC=C[C@@H]2CC(=O)OB1O2 [Compound 3]", "> 7.00"],
  ["N#CCSCC(=O)N[C@H]1CC=C[C@@H]2CC(=O)OB1O2 [Compound 2]", "> 7.00"],
  ["CSCC(=O)N[C@H]1CC=C[C@@H]2CC(=O)OB1O2 [Compound 1]", "> 7.00"]
]}

* * *

Here, each record is paired with measured PAM1154/KPC-2 Biapenem MPC64 data.
- Test system: PAM1154/KPC-2
- Run description: Biapenem potentiation MPC64, efflux deficient strain
- Format: cell-based, Pseudomonas aeruginosa
- Design: unit not given here
- Condition label: efflux deficient (lacks MexAB-OprM); decrease biapenem MIC 64-fold, 32 to 0.5 μg/ml

{"columns": ["Chemical smiles", "PAM1154/KPC-2 Biapenem MPC64"],
 "data": [
  ["Cn1cnnc1SCC(=O)N[C@H]1CC=C[C@@H]2CC(=O)OB1O2", 20],
  ["Nc1nnc(SCC(=O)N[C@H]2CC=C[C@@H]3CC(=O)OB2O3)s1", 5],
  ["O=C(CSc1nncs1)N[C@H]1CC=C[C@@H]2CC(=O)OB1O2", 5],
  ["CSCC(=O)N[C@H]1CC=C[C@@H]2CC(=O)OB1O2", 5],
  ["Cn1nnnc1SCC(=O)N[C@H]1CC=C[C@@H]2CC(=O)OB1O2", 10],
  ["N#CCSCC(=O)N[C@H]1CC=C[C@@H]2CC(=O)OB1O2", 5],
  ["O=C(CSC(F)F)N[C@H]1CC=C[C@@H]2CC(=O)OB1O2", 5]
]}

* * *

# bioavailability annotations
- Run description: Oral pharmacokinetics
- Assay type: in vivo
- Condition label: rat, plasma; rats, single oral dose 30 mg/kg, n=3; read-out: Range of % Oral Bioavailability

{"columns": ["Chemical smiles", "bioavailability"],
 "data": [
  ["O=C(CSC(F)F)N[C@H]1CC=C[C@@H]2CC(=O)OB1O2", "28 to 54%"],
  ["Nc1nnc(SCC(=O)N[C@H]2CC=C[C@@H]3CC(=O)OB2O3)s1", "2 to 4%"],
  ["CSCC(=O)N[C@H]1CC=C[C@@H]2CC(=O)OB1O2", "44 to 61%"]
]}
